Experiment: Toxicology in rats
Settings: rat, in vivo, read-out: no observed effect dose
measured_parameter: NOAEL (mg/kg/day)
State just the number; it will be interpreted in mg/kg/day.

### Prompt Given the entry COCc1nc(N)nc(N)c1-c1cc(Cl)cc(Cl)c1Cl , report its measured NOAEL.
### Response 2.5

---

Target: Rat Liver DHFR (Rattus norvegicus)
Assay: biochemical
Settings: DHFR enzyme activity, P95 limits in parentheses
Reported pIC50 values follow for various molecules
Reminder that pIC50 means the negative base-10 logarithm of the concentration expressed in mol/L.

COCc1nc(N)nc(N)c1-c1cc(Cl)cc(Cl)c1Cl [Example 2] : 4.48

As a next step, examine the molecule that follows.
### Prompt So what does the record say about pIC50 for Nc1ncc(-c2cccc(Cl)c2Cl)c(N)n1 [Example 21] ?
### Response 4.80

---

Reported IC50 by item:
Target sequence: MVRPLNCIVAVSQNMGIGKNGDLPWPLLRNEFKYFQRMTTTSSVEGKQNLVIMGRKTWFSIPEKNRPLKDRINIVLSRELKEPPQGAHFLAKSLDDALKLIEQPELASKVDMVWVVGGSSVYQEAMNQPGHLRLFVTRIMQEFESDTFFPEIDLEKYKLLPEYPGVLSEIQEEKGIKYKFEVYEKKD

See these solved cases before continuing.
Cc1nc(N2CCN(C)CC2)nc(N)c1-c1cc(Cl)cc(Cl)c1Cl : > 100 µM
Nc1nc(N)c(-c2ccc(Cl)cc2Cl)c(COCc2ccccc2)n1 : ~10 µM
CN(C)c1nc(N)c(-c2cc(Cl)cc(Cl)c2Cl)c(C(F)(F)F)n1 : > 10 µM
CN(C)c1ncc(-c2cc(Cl)cc(Cl)c2Cl)c(N)n1 : > 100 µM

Now look at this entry.
### Prompt Which IC50 value belongs to CCc1nc(N)nc(N)c1-c1ccccc1Cl ?
### Response 15.1 µM

---

System: veratrine-evoked release of glutamate from rat brain slices
Assay: tissue or blood
Type: cell-based
Settings: P95 limits in parentheses
pIC50: −log10 of the molar value.
Below: a set of entries, each annotated with reported pIC50.

As a guide, the following entries are already answered.
Nc1nc(N2CCOCC2)ncc1-c1cc(Cl)cc(Cl)c1Cl : > 5.00
CN1CCN(c2ncc(-c3ccc(Cl)cc3Cl)c(N)n2)CC1 : ~5.00
Nc1nc(N)c(-c2cccc(Cl)c2Cl)c(CF)n1 : > 5.00
CN(C)c1nc(N)c(-c2cc(Cl)cc(Cl)c2Cl)c(C(F)(F)F)n1 : > 5.00

Now consider the entry below.
### Prompt veratrine-evoked release of glutamate from rat brain slices / pIC50 / Cc1nc(N)nc(N)c1-c1cc(Cl)c([N+](=O)[O-])c(Cl)c1Cl : value?
### Response > 5.00

---

Below: a set of entries, each annotated with reported IC50.
Target protein (sequence): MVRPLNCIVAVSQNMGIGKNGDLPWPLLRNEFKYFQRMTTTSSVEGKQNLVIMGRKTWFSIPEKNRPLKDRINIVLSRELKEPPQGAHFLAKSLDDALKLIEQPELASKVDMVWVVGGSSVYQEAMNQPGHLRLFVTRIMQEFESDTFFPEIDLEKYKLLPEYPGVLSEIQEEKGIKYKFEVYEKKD

Consider the following illustrative entries.
Nc1nc(N)c(-c2cc(Cl)cc(Cl)c2Cl)c(C(F)(F)F)n1 [Example 4] : > 100 µM
Nc1nc(N)c(-c2cccc(Cl)c2Cl)c(COc2ccccc2)n1 [Example 19] : > 100 µM
COCc1nc(N)nc(N)c1-c1cccc(Cl)c1Cl [Example 16] : > 100 µM
Cc1nc(N(C)C)nc(N)c1-c1cc(Cl)cc(Cl)c1Cl [Example 13] : > 100 µM
Nc1nc(N)c(-c2cccc(Cl)c2Cl)c(CF)n1 [Example 18] : ~100 µM
Cc1nc(N)nc(N)c1-c1cc(Cl)c([N+](=O)[O-])c(Cl)c1Cl [Example 12] : > 100 µM
CN1CCN(c2nc(N)c(-c3cc(Cl)cc(Cl)c3Cl)c(C(F)(F)F)n2)CC1 [Example 1] : > 100 µM
Nc1ncc(-c2cc(Cl)c([N+](=O)[O-])c(Cl)c2Cl)c(N)n1 [Example 5] : ~100 µM

### Prompt Given the entry Nc1nc(N2CCOCC2)nc(C(F)(F)F)c1-c1cc(Cl)cc(Cl)c1Cl [Example 7] , report its measured IC50.
### Response > 10 µM

### Prompt So what's the measured IC50 for this one? Nc1nc(N)c(-c2ccc(Cl)cc2Cl)c(C(F)(F)F)n1 [Example 25]
### Response > 100 µM

### Prompt Query (compound): Nc1nc(N2CCOCC2)ncc1-c1cc(Cl)cc(Cl)c1Cl [Example 9] ; field requested: IC50
### Response > 100 µM

### Prompt Which IC50 is listed for CN1CCN(c2ncc(-c3ccc(Cl)cc3Cl)c(N)n2)CC1 [Example 27] ?
### Response > 100 µM

// provenance: patent US5136080A
